biological target: human recombinant ASK1 (Homo sapiens, UniProt Q99683); assay: Enzyme inhibition assay (in vitro ASK1 assay), luciferase-based measurement of remaining ATP; conditions: human recombinant ASK1, MBP and ATP as substrates, 180 minutes at 30° C.; triplicates on at least 2 separate occasions
Sequence (Q99683 whole entry): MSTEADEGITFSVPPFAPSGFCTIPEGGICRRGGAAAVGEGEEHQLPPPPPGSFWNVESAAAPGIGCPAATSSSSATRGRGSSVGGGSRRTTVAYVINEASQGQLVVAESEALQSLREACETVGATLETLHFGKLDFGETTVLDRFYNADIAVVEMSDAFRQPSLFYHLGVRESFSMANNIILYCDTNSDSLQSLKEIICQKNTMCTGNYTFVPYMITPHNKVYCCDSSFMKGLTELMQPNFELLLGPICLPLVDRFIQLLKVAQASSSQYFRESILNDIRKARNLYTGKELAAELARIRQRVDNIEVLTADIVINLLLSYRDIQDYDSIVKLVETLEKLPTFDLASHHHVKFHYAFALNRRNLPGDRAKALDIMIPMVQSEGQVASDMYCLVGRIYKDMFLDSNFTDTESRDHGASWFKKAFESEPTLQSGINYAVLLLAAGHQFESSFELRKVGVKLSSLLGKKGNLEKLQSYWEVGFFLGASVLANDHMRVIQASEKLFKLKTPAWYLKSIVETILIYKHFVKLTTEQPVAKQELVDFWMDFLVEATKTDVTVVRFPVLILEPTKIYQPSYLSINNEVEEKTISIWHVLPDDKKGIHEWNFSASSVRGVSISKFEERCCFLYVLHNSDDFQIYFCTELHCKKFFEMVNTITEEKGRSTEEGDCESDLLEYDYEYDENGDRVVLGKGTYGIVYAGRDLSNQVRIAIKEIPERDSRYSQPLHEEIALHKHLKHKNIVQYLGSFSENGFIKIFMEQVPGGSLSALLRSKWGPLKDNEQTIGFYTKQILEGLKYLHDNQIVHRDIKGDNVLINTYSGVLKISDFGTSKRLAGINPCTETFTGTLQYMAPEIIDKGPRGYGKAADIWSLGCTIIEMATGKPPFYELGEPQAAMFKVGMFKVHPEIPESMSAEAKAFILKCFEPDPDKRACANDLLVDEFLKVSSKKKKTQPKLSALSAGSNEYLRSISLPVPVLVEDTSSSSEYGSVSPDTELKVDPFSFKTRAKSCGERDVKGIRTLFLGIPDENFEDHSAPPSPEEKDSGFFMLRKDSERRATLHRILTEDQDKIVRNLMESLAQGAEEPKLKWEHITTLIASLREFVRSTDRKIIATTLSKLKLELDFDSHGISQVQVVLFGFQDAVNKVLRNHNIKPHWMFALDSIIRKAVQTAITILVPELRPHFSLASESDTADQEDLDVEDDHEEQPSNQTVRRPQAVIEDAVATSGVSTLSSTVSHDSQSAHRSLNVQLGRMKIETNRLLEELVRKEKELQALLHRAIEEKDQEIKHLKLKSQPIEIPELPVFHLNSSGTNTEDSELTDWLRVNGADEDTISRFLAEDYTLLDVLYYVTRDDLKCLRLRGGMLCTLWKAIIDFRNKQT
pIC50: −log10 of the molar value. Where a name gives a salt, the structure may show the parent alone.
property label: pIC50

Field: example entries. Status: answers known.
{"molecule": "O=C(CCNC(=O)c1ccccc1)Nc1nc2cccc(-c3ccoc3)n2n1 [Example 96]", "pIC50": 6.00}
{"molecule": "CN1CCC(Nc2cccc3nc(NC(=O)c4ccccc4)nn23)CC1 [Example 72]", "pIC50": 5.39}
{"molecule": "COC(=O)[C@H]1CC[C@H](Nc2cc(C(F)(F)F)cc3nc(NC(=O)c4cccnc4)nn23)CC1 [Example 90]", "pIC50": 6.15}

A: O=C(Nc1nc2cccc(NCC3CCCO3)n2n1)c1ccccc1 (stereo not drawn) [Example 45]
B: O=C(Nc1nc2cccc(NCC3CCCCC3)n2n1)c1cccnc1 [Example 115]
# input # query: argmin of pIC50 over A and B Answer = label.
# output A

1: Cc1ccc(CNc2cccc3nc(NC(=O)c4cccnc4)nn23)o1 [Example 63]
2: CC(C)=Cc1cccc2nc(NC(=O)c3cccnc3)nn12 [Example 94, dihydrochloride]
# input Task for the reader: decide whether 1 or 2 has the larger pIC50. Output the label that corresponds to your choice.
# output 2

====

target: human recombinant ASK1 (Homo sapiens); experiment: Enzyme inhibition assay (in vitro ASK1 assay), luciferase-based measurement of remaining ATP; conditions: human recombinant ASK1, MBP and ATP as substrates, 180 minutes at 30° C.; triplicates on at least 2 separate occasions
Structures can show the parent of a compound that is named as a salt.
property label: IC50 (µM)

Recorded results for 4 molecules are shown here.
{"molecule": "O=C(Nc1nc2cccc(-c3cn[nH]c3)n2n1)c1ccccc1", "unit name": "µM", "IC50": 14.8}
{"molecule": "CC(C)(C)OC(=O)NCc1ccc(C(=O)Nc2nc3cccc(-c4ccoc4)n3n2)cc1", "unit name": "µM", "IC50": 1.7}
{"molecule": "O=C(Nc1nc2cccc(NC3CCCCCC3)n2n1)c1cccnc1 [Example 61, dihydrochloride]", "unit name": "µM", "IC50": 0.18}
{"molecule": "O=C(Nc1nc2cccc(NC3CCCCC3)n2n1)c1ccc(N2CCOCC2)nc1", "unit name": "µM", "IC50": 0.11}

I: COc1cc(-c2ccc3nc(NC(=O)c4ccccc4)nn3c2)ccc1O [Example 56, hydrochloride]
II: COc1cc(-c2ccc3nc(NC(=O)c4ccc(CN5CCCCC5)cc4)nn3c2)ccc1O
# input From the recorded data, which exceeds the other in IC50: I or II ? # answer = label of selected item
# output II
(II: 2 µM, I: 0.99 µM)

====

biological target: human recombinant ASK1 (Homo sapiens); test: Enzyme inhibition assay (in vitro ASK1 assay), luciferase-based measurement of remaining ATP; conditions: human recombinant ASK1, MBP and ATP as substrates, 180 minutes at 30° C.; triplicates on at least 2 separate occasions
pIC50: −log10 of the molar value. Counter-ions that a name gives are not always drawn.
property label: pIC50

Look over these answered cases.
{"molecule": "O=C(Nc1nc2cccc(NC3CCCCC3)n2n1)c1ccc(NCCCO)nc1", "assay system": "human recombinant ASK1 (Homo sapiens)", "test result": 7.04}
{"molecule": "CCC(C)Nc1cc(Cl)cc2nc(NC(=O)c3ccc(NCCCO)nc3)nn12 (centres unmarked)", "assay system": "human recombinant ASK1 (Homo sapiens)", "test result": 6.92}
{"molecule": "O=C(Nc1nc2cccc(SC3CCCCC3)n2n1)c1cccnc1", "assay system": "human recombinant ASK1 (Homo sapiens)", "test result": 5.72}
{"molecule": "O=C(Nc1nc2cccc(NCc3ccco3)n2n1)c1ccccc1", "assay system": "human recombinant ASK1 (Homo sapiens)", "test result": 5.16}
{"molecule": "O=C(Nc1nc2cccc(-c3ccoc3)n2n1)c1ccc(C(F)(F)F)cc1", "assay system": "human recombinant ASK1 (Homo sapiens)", "test result": 5.10}

a: CN(C)Cc1ccc(C(=O)Nc2nc3cc(C(F)(F)F)cc(NC4CC4)n3n2)cc1
b: O=C(Nc1nc2cc(Cl)cc(NC3CCCCC3)n2n1)c1cccnc1
c: CN(C)Cc1ccc(C(=O)Nc2nc3cccc(NC4CCCCC4)n3n2)cc1
d: COCC(=O)Nc1nc2cccc(-c3ccoc3)n2n1
# input Place the items in sequence of falling pIC50. Write the labels, ordered according to the request.
# output b, a, c, d

I: O=C(Nc1nc2cc(C(F)(F)F)cc(NCC3CC3)n2n1)c1cccnc1
II: COc1cc(-c2ccc3nc(NC(=O)c4cccnc4)nn3c2)ccc1O [Example 66, hydrochloride]
# input Could you point out whether the larger pIC50 belongs to I or to II ? Answer format: the label of the selected item.
# output II
(II: 6.59, I: 6.34)

====

target: human recombinant ASK1 (Homo sapiens); assay: Enzyme inhibition assay (in vitro ASK1 assay), luciferase-based measurement of remaining ATP; format: biochemical; conditions: human recombinant ASK1, MBP and ATP as substrates, 180 minutes at 30° C.; triplicates on at least 2 separate occasions
pIC50: −log10 of the molar value.
property label: pIC50

{"molecule": "O=C(Nc1nc2cccc(-c3ccoc3)n2n1)c1cccnc1", "pIC50": 6.15}
{"molecule": "O=C(Nc1nc2cc(C(F)(F)F)cc(NCCCO)n2n1)c1cccnc1", "pIC50": 6.71}
{"molecule": "COCCN(C)Cc1ccc(C(=O)Nc2nc3cccc(NC4CCCCC4)n3n2)cc1", "pIC50": 6.27}
{"molecule": "O=C(Nc1nc2cccc(NC3CCCOC3)n2n1)c1ccccc1 (stereo not drawn)", "pIC50": 5.78}
{"molecule": "O=C(Nc1nc2cc(C(F)(F)F)cc(NC3CCCCC3)n2n1)c1cccnc1", "pIC50": 6.92}

P: COc1cc(-c2ccc3nc(NC(=O)c4ccc(CN(C)C)cc4)nn3c2)ccc1O
Q: CCC(C)Nc1cc(C(F)(F)F)cc2nc(NC(=O)c3cccnc3)nn12 (stereo not drawn)
# input Return label of the item with the larger pIC50. Candidates: P , Q . State your choice using its label.
# output Q
(Q: 7.25, P: 5.26)

I: CC(C)Nc1cc(C(F)(F)F)cc2nc(NC(=O)c3cccnc3)nn12
II: O=C(Nc1nc2cccc(NC3CC3)n2n1)c1cccnc1
# input Among I and II , which shows a numerically higher pIC50 result? API: response body contains the label of the selected item.
# output I

A: CCC(CO)Nc1cccc2nc(NC(=O)c3ccccc3)nn12 (stereo not drawn)
B: O=C(Nc1nc2cccc(-c3ccc[nH]3)n2n1)C1CCCC1
# input Select the item with the higher value of pIC50 from the options A and B listed. I would appreciate it if you answered with the label of your choice.
# output A
(A: 5.10, B: 4.80)

Hello, the source for this data is patent US8263595B2, in case you need it.
